Property: ED50; scope: individual compounds
# Species: Mus musculus
# experiment.notes: Inhibition of acetic acid induced writhing in mice.
# Type: functional
Answer with a number only, understood to be in mg/kg.

Example results:
>>> df
                                   compound  quantity_kind  unit_abbreviation  observed_result
0  CCCCOC(=O)n1c2cc(C(F)(F)F)ccc2c2oc(C(=O)N3CCOCC3)cc21           ED50              mg/kg             21.4
1  CCCCC(CC)C(=O)n1c2cc(C(F)(F)F)ccc2c2oc(C(=O)N3CCOCC3)cc21 (stereo not given)           ED50              mg/kg              0.7
2  CCCOC(=O)n1c2cc(C(F)(F)F)ccc2c2oc(C(=O)N3CCOCC3)cc21           ED50              mg/kg             34.6
3  CC(C)CCn1c2cc(C(F)(F)F)ccc2c2oc(C(=O)N3CCOCC3)cc21           ED50              mg/kg              5.1
4  CCCCn1c2cc(C(F)(F)F)ccc2c2oc(C(=O)N3CCOCC3)cc21           ED50              mg/kg             29.5
5  Cc1ccc2c3oc(C(=O)N4CCOCC4)cc3n(C(=O)OC(C)C)c2c1           ED50              mg/kg               26

Note ED50 for the compound shown: O=C(Cn1c(=O)sc2ccc(Cl)cc21)N1CCN(CCO)CC1 [TIARAMIDE]
74

State its ED50: CC(C)CCCn1c2cc(C(F)(F)F)ccc2c2oc(C(=O)N3CCOCC3)cc21
6

Report measured ED50; entry is CC(C)OC(=O)n1c2cc(C(F)(F)F)ccc2c2oc(C(=O)N3CCOCC3)cc21
4.7

Give the reported ED50 for this compound. CC(C)OC(=O)n1c2cc(Cl)ccc2c2oc(C(=O)N3CCOCC3)cc21
21.4

Reference for the values: ChEMBL document CHEMBL1123497
